All values here come from BigSolDB 2.1.

# CONDITION PARAMETERS: in water, 328.15 K
Where a SMILES comes first, the peptide text is derived from it.
QUANTITY MEASURED: solubility (mole fraction)

[[record]]
compound = "COC(=O)[C@H](Cc1ccccc1)NC(=O)[C@@H](N)CC(=O)O (H-Asp-Phe-OMe)"
quantity_measured = "solubility (mole fraction)"
observed = 0.00224


----------
# CONDITION PARAMETERS: in methanol, 293.15 K
Where a SMILES comes first, the peptide text is derived from it.
QUANTITY MEASURED: solubility (mole fraction)

[[record]]
compound = "COC(=O)[C@H](Cc1ccccc1)NC(=O)[C@@H](N)CC(=O)O (H-Asp-Phe-OMe)"
observed = 0.00074


----------
# CONDITION PARAMETERS: in methanol, 318.15 K
Where a SMILES comes first, the peptide text is derived from it.
QUANTITY MEASURED: solubility (mole fraction)

[[record]]
compound = "COC(=O)[C@H](Cc1ccccc1)NC(=O)[C@@H](N)CC(=O)O (H-Asp-Phe-OMe)"
observed = 0.00136


----------
# CONDITION PARAMETERS: in methanol, 328.15 K
Where a SMILES comes first, the peptide text is derived from it.
QUANTITY MEASURED: solubility (mole fraction)

[[record]]
compound = "COC(=O)[C@H](Cc1ccccc1)NC(=O)[C@@H](N)CC(=O)O (H-Asp-Phe-OMe)"
observed = 0.00175


----------
# CONDITION PARAMETERS: in methanol, 298.15 K
Where a SMILES comes first, the peptide text is derived from it.
QUANTITY MEASURED: solubility (mole fraction)

[[record]]
compound = "COC(=O)[C@H](Cc1ccccc1)NC(=O)[C@@H](N)CC(=O)O (H-Asp-Phe-OMe)"
quantity_measured = "solubility (mole fraction)"
observed = 0.000832


----------
# CONDITION PARAMETERS: in ethanol, 288.15 K
Where a SMILES comes first, the peptide text is derived from it.
QUANTITY MEASURED: solubility (mole fraction)

[[record]]
molecule = "COC(=O)[C@H](Cc1ccccc1)NC(=O)[C@@H](N)CC(=O)O (H-Asp-Phe-OMe)"
observed = "6.19e-05"


----------
# CONDITION PARAMETERS: in ethanol, 303.15 K
Where a SMILES comes first, the peptide text is derived from it.
QUANTITY MEASURED: solubility (mole fraction)

[[record]]
molecule = "COC(=O)[C@H](Cc1ccccc1)NC(=O)[C@@H](N)CC(=O)O (H-Asp-Phe-OMe)"
observed = 0.000144


----------
# CONDITION PARAMETERS: in methanol, 283.15 K
Where a SMILES comes first, the peptide text is derived from it.
QUANTITY MEASURED: solubility (mole fraction)

[[record]]
compound = "COC(=O)[C@H](Cc1ccccc1)NC(=O)[C@@H](N)CC(=O)O (H-Asp-Phe-OMe)"
quantity_measured = "solubility (mole fraction)"
observed = 0.000593


----------
# CONDITION PARAMETERS: in ethanol, 298.15 K
Where a SMILES comes first, the peptide text is derived from it.
QUANTITY MEASURED: solubility (mole fraction)

[[record]]
compound = "COC(=O)[C@H](Cc1ccccc1)NC(=O)[C@@H](N)CC(=O)O (H-Asp-Phe-OMe)"
observed = 0.000113

